Every entry's value here was drawn from ChEMBL document CHEMBL1275447.

- protocol_details: AUC in Pseudomonas aeruginosa ATCC 27853 infected neutropenic ICR mouse at 500 mg administered as 1 hr infusion
- Format: ADME, organism-based
- condition_context: plasma, iv
reported_metric: AUC at 1 h (ng·h/mL)

INSERT INTO results (chemical_structure, quantitative_readout) VALUES
  ('C[C@@H](O)[C@H]1C(=O)N2C(C(=O)O)=C(S[C@@H]3CN[C@H](CNS(N)(=O)=O)C3)[C@H](C)[C@H]12', 37600);

====

- protocol_details: Half-life in Pseudomonas aeruginosa ATCC 27853 infected neutropenic ICR mouse at 50 mg/kg, sc administered as single dose 2 hrs postinfection
- Format: ADME, organism-based
- Parameters: dose 50 mg/kg, route subcutaneous
- condition_context: in vivo
reported_metric: half-life (min)

INSERT INTO measurements (chemical_structure, quantitative_readout) VALUES
  ('C[C@@H](O)[C@H]1C(=O)N2C(C(=O)O)=C(S[C@@H]3CN[C@H](CNS(N)(=O)=O)C3)[C@H](C)[C@H]12', 20.4);

====

- protocol_details: Cmax in Pseudomonas aeruginosa ATCC 27853 infected neutropenic ICR mouse at 10 mg/kg, sc administered as single dose 2 hrs postinfection by HPLC
- Format: ADME, organism-based
- Design: dose 10 mg/kg, route subcutaneous
- condition_context: in vivo
reported_metric: Cmax (ng/mL)

INSERT INTO measurements (chemical_structure, reported_metric, quantitative_readout) VALUES
  ('C[C@@H](O)[C@H]1C(=O)N2C(C(=O)O)=C(S[C@@H]3CN[C@H](CNS(N)(=O)=O)C3)[C@H](C)[C@H]12', 'Cmax', 16300);

====

- protocol_details: AUC in healthy human at 500 mg administered as 4 hr infusion
- Assay type: ADME, organism-based
- condition_context: plasma, iv
reported_metric: AUC at 4 h (ng·h/mL)

INSERT INTO measurements (chemical_structure, quantitative_readout) VALUES
  ('C[C@@H](O)[C@H]1C(=O)N2C(C(=O)O)=C(S[C@@H]3CN[C@H](CNS(N)(=O)=O)C3)[C@H](C)[C@H]12', 32400);

====

- protocol_details: AUC (0 to 24 hrs) in Pseudomonas aeruginosa ATCC 27853 infected neutropenic ICR mouse at 150 mg/kg, sc administered as single dose 2 hrs postinfection
- Type: ADME, organism-based
- Set-up: time < 24 hr, dose 150 mg/kg, route subcutaneous
- condition_context: plasma
reported_metric: AUC(0-t) at 24 h (µg·h/mL)

INSERT INTO results (chemical_structure, result_unit, quantitative_readout) VALUES
  ('C[C@@H](O)[C@H]1C(=O)N2C(C(=O)O)=C(S[C@@H]3CN[C@H](CNS(N)(=O)=O)C3)[C@H](C)[C@H]12', 'µg·h/mL', 168);

====

- protocol_details: Tmax in Pseudomonas aeruginosa ATCC 27853 infected neutropenic ICR mouse at 50 mg/kg, sc administered as single dose 2 hrs postinfection by HPLC
- Type: ADME, organism-based
- Design: dose 50 mg/kg, route subcutaneous
- condition_context: in vivo
reported_metric: Tmax (min)

INSERT INTO assay_data (chemical_structure, result_unit, quantitative_readout) VALUES
  ('C[C@@H](O)[C@H]1C(=O)N2C(C(=O)O)=C(S[C@@H]3CN[C@H](CNS(N)(=O)=O)C3)[C@H](C)[C@H]12', 'min', 22.8);
